Target: HYPE (Homo sapiens, UniProt Q9BVA6, E234G)
Sequence (Q9BVA6 103-445 E234G): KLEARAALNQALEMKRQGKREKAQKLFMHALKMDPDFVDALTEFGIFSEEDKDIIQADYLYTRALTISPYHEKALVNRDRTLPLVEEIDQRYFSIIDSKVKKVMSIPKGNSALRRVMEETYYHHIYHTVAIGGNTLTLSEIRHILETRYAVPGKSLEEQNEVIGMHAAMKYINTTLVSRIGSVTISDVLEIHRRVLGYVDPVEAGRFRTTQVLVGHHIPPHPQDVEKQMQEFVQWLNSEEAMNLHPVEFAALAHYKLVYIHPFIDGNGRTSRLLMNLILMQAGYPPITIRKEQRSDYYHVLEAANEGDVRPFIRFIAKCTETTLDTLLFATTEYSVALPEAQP
Test: ITC; crystal structure; thermal shift
endpoint: pKd
Scale: pKd equals -log10([C]), with [C] in mol/L.

GET /values?readout=pKd&system=HYPE (Homo sapiens, UniProt Q9BVA6, E234G)&item= `Nc1ncnc2c1ncn2[C@@H]1O[C@H](COP(=O)(O)OP(=O)(O)O)[C@@H](O)[C@H]1O` 6.80
